Biological target: Zap-70 (Homo sapiens, UniProt P43403)
Construct: Kinases are expressed as either kinase domains or full length constructs; made in house
Sequence (P43403 whole entry, species assumed, the tested form may be a part): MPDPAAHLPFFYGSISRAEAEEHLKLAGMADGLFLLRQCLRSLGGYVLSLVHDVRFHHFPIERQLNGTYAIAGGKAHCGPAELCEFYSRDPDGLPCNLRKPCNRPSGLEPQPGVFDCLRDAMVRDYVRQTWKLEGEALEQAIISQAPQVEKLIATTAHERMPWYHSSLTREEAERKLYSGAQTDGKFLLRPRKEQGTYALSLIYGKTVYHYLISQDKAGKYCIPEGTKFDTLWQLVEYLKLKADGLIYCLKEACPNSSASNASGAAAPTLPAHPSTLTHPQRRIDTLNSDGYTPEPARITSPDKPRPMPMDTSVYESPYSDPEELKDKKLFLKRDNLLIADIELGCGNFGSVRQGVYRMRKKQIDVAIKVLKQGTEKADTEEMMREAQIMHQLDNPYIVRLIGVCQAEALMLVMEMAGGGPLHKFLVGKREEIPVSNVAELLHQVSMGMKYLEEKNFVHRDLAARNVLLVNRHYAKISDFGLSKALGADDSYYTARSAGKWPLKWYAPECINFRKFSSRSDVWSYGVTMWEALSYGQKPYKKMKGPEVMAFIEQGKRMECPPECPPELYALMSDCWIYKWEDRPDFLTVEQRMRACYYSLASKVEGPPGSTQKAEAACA
Assay: Kinase inhibition assay (33P transfer), Zap-70
Format: biochemical
Conditions: Table 3, class symbols; read-out: Zap-1
Form field: IC50 (one value per entry).
Measurement name: IC50

> print(dat)
                                    molecule  measurement.name            result
 1  COc1ccc(Nc2ncnc(N(C)[C@H](C)c3ccccc3)n2)cc1OC [Compound 803]              IC50         > 12.3 µM
 2  CCOc1cccc(Nc2ncnc(Nc3cc(-c4ccc(C(=O)OC)cc4)n[nH]3)n2)c1 [Compound 812]              IC50         > 10.4 µM
 3  O=S(=O)(O)c1cccc(Nc2ncnc(Nc3cc(-c4ccco4)[nH]n3)n2)c1 [Compound 825]              IC50   6.01 to 8.76 µM
 4  Fc1ccc(CNc2ncccc2-c2ncnc(Nc3cccc(Cn4ccnn4)c3)n2)cc1 [Compound 1102]              IC50   7.72 to 9.92 µM
 5  OCc1cccc(Nc2ncnc(-c3cccnc3Nc3ccccc3)n2)c1 [Compound 1115]              IC50         > 12.1 µM
 6  COc1ccc(Nc2ncnc(N(C)c3ccc(Cl)cc3)n2)cc1OC [Compound 795]              IC50         > 12.1 µM
 7  CCOc1cccc(Nc2ncnc(N3CCCc4cc(C)ccc43)n2)c1 [Compound 892]              IC50         > 12.4 µM
 8  Cc1nccc(-c2cccc(Nc3ncnc(Nc4ccc5c(cnn5Cc5ccccc5)c4)n3)c2)n1 [Compound 901]              IC50         > 9.27 µM
 9  CN(c1cccc(Cl)c1)c1ncnc(Nc2ccc(OCCO)cc2)n1 [Compound 641]              IC50         > 12.1 µM
10  COc1ccc(Nc2ncnc(N(C)c3cccc(C)c3)n2)cc1OC [Compound 800]              IC50         > 12.8 µM
11  COc1cc(Nc2ncnc(-c3cccnc3Nc3ccc4c(c3)CCC4)n2)cc(OC)c1OC [Compound 830]              IC50         > 9.56 µM
12  CNS(=O)(=O)Cc1ccc(Nc2ncnc(Nc3cc(-c4ccc(C(=O)OC)cc4)n[nH]3)n2)cc1 [Compound 883]              IC50          > 9.1 µM
13  COc1cc(Nc2ncnc(Nc3cc(Cl)c(NC(=O)c4ccccc4)cc3C)n2)cc(OC)c1OC [Compound 633]              IC50         > 8.64 µM
14  COc1cc(Nc2ncnc(Nc3cc(-c4ccco4)[nH]n3)n2)cc(C(F)(F)F)c1 [Compound 821]              IC50  0.958 to 5.75 µM
15  COc1cccc(CCNc2ncnc(Nc3ccc4c(cnn4Cc4ccccc4)c3)n2)c1OC [Compound 873]              IC50         > 9.34 µM
16  Brc1cccc(Nc2ncnc(Nc3cccc(Cn4ccnn4)c3)n2)c1 [Compound 961]              IC50         > 10.6 µM
17  COc1cc(Nc2ncnc(-c3cccnc3Nc3ccccc3C)n2)cc(OC)c1OC [Compound 833]              IC50         > 10.1 µM
